Biological target: Insulin Receptor Kinase (Homo sapiens, UniProt P06213)
Construct: Insulin Receptor Kinase consists of residues 941-1313 of the cytoplasmic domain of the beta-subunit of the human insulin receptor
Sequence (P06213 980-1352): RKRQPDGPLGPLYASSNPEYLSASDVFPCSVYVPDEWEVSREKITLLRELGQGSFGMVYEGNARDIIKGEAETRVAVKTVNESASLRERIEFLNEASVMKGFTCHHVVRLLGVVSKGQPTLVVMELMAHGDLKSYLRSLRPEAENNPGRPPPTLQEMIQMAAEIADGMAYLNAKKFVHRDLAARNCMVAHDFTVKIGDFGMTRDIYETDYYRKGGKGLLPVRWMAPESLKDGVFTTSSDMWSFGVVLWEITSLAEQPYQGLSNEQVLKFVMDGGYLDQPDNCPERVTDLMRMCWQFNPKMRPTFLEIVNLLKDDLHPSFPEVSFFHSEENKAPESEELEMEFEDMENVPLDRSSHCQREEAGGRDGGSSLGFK
Test: Kinase assay (33P Flashplate), Insulin Receptor Kinase
Details: mean of at least two curves
pIC50: −log10 of the molar value.
recordedMetric: pIC50

Fill in pIC50 for record COc1cc(N)nc2[nH]c(-c3ccc(F)cc3)c(-c3ccncc3)c12 [Compound A]
< 4.00

---

Test system: differentiated P19 neurons
Experiment: Differentiated P19 excitotoxicity assay (glutamate/glycine-induced death, Alamar Blue)
Format: cell-based, murine
Settings: constant 1 mM glycine, 24 hours; average of 6 curves; read-out: Glutamate toxicity EC50
recordedMetric: pEC50
Just the number, please; pEC50 means minus log10 of the concentration in mol/L.

Report pEC50 on differentiated P19 neurons for this entry: N[C@@H](CCC(=O)O)C(=O)O [Glutamate]
5.09

---

Reported values of % neuroprotection (cell survival relative to control) for individual entries
Test system: differentiated P19 neurons
Assay: Drug screening using differentiated P19 cell assay (neuroprotection against glutamate/glycine)
Assay type: cell-based, murine
Conditions: screened at 1 micromolar; percentage of control cells surviving after 24 hours
Write the answer as a number in %, unit excluded.

These solved cases illustrate the format of a correct answer.
COc1cc(Nc2cccc(-c3ccc(Cl)cc3)n2)cc(OC)c1OC | 76
COc1cc(Nc2cccc(-c3ccc(O)cc3)n2)cc(OC)c1OC | 78
CC(C)(C)OC(=O)N1CCN(c2ccc(-c3ccc(Nc4ccc5c(c4)OCCO5)nc3)cc2)CC1 | 99
c1ccc(-c2ccc(-c3ccc(Nc4ccc(N5CCOCC5)cc4)nc3)cc2)cc1 | 109

Given CCn1c2ccccc2c2cc(Nc3cccc(-c4ccco4)n3)ccc21 , respond with its % neuroprotection (cell survival relative to control).
105

---

This document collects IC50 values reported for PKC-γ (Homo sapiens).
Numeric answer only, unit µM assumed.

N#CC(=C(/N)Sc1ccccc1N)/C(C#N)=C(/N)Sc1ccccc1N [U0126] | 29.5

State IC50 (PKC-γ (Homo sapiens)) of COc1cc(N)nc2[nH]c(-c3ccc(F)cc3)c(-c3ccncc3)c12 [Compound A] .
8.35

---

Target: EGF-R (Homo sapiens, UniProt P00533)
Sequence (P00533 25-1210): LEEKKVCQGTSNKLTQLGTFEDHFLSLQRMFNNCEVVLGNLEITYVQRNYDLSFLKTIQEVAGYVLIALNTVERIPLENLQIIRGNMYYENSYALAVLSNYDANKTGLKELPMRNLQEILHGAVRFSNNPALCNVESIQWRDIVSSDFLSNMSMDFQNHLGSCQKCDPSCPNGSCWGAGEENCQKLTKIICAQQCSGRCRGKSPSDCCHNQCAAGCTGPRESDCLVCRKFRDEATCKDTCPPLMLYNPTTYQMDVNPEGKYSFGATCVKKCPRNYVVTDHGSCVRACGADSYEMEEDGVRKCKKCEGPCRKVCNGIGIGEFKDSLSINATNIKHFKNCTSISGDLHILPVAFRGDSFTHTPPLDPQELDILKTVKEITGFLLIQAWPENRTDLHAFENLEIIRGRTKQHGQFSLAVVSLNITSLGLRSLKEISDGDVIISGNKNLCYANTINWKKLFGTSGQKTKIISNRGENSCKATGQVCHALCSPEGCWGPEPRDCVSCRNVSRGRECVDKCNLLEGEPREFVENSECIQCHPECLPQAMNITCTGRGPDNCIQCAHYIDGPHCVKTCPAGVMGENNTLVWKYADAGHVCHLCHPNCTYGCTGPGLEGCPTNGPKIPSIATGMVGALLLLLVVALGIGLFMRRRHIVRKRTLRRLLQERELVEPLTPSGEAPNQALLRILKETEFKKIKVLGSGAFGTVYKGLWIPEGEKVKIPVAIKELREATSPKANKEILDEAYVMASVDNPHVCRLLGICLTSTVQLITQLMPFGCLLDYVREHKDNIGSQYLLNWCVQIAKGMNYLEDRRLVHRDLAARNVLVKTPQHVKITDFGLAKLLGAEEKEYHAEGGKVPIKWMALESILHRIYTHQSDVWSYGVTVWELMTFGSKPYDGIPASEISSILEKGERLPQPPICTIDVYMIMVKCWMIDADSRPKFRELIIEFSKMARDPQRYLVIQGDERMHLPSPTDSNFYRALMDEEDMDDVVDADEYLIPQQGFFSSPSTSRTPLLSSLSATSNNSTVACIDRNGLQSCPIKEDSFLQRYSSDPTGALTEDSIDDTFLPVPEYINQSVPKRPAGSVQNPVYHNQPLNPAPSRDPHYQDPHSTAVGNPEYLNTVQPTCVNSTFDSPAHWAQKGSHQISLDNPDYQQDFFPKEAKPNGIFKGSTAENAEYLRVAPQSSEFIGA
pIC50: −log10 of the molar value.
recordedMetric: pIC50

Dear colleague, please send me the reported pIC50 for N#CC(=C(/N)Sc1ccccc1N)/C(C#N)=C(/N)Sc1ccccc1N when you can.
< 4.00

---

Target: Casein Kinase 1 (Rattus norvegicus)
Construct: a truncation at amino acid 318 of the C-terminal portion of the rat CK1 delta isoform
Sequence (Q06486 1-317): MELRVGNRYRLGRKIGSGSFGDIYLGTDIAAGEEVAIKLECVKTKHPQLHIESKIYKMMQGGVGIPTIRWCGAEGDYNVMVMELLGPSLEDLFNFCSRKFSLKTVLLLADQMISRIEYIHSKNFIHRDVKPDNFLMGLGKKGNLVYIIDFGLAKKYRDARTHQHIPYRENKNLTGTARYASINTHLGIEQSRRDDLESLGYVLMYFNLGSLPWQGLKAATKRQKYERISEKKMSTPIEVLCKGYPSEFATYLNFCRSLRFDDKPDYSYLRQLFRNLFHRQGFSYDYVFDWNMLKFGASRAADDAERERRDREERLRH
Assay: Kinase assay (33P Flashplate), Casein Kinase 1
Details: mean of at least two curves
recordedMetric: pIC50
Here pIC50 is given on a logarithmic scale as minus log10 of the concentration in mol/L.

Answer with the recorded pIC50 of COc1cc(N)nc2[nH]c(-c3ccc(F)cc3)c(-c3ccncc3)c12 only.
6.94

---

Target: UniProtKB P11275
Sequence (P11275 1-325): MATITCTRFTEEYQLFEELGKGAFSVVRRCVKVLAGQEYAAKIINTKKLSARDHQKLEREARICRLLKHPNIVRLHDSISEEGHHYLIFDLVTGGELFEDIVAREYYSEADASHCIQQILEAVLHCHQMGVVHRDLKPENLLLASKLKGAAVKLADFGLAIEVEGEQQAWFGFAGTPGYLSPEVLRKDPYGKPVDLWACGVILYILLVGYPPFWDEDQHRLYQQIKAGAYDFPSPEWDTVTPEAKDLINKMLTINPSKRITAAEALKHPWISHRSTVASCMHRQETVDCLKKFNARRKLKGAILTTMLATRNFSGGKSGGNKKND
recordedMetric: IC50

Using known records, supply IC50 for N#CC(=C(/N)Sc1ccccc1N)/C(C#N)=C(/N)Sc1ccccc1N
> 100 µM

Write down IC50 measured for item COc1cc(N)nc2[nH]c(-c3ccc(F)cc3)c(-c3ccncc3)c12
> 100 µM

---

Tested on: differentiated P19 neurons
Assay: Drug screening using differentiated P19 cell assay (neuroprotection against glutamate/glycine)
Assay type: cell-based, murine
Details: screened at 1 micromolar; percentage of control cells surviving after 24 hours
Description: Commercially available chemical libraries (BioFocus PLC, UK) were screened using the methods described herein. The stock concentration of the compounds was about 400 μM in DMSO. The concentration of compounds used in the primary screen was 1 μM. […] Columns 4-11 received compounds at the following final concentrations (μM): 3, 1.2, 0.48, 0.192, 0.077, 0.031, 0.012 and 0.005. […] Data are expressed as % neuroprotection=((compound-glutamate average)/(U0126-glutamate average)×100). […]
Listing: % neuroprotection (cell survival relative to control) of selected molecules
Your answer is read as %, so omit the unit and give the number.

The cases that follow already have their % neuroprotection (cell survival relative to control) on record.
C(=C\c1ccc(Nc2ccc3c(c2)OCCO3)nc1)/c1ccccc1 [Cmpd 88] | 85
CCCCCOc1ccc(Nc2ccc(-c3ccc(N4CCOCC4)cc3)cn2)cc1 [Cmpd 6] | 83
COc1cc(-c2ccc(Nc3ccc(N4CCOCC4)cc3)nc2)cc(OC)c1OC [Cmpd 24] | 94
CN(C)c1cccc(-c2ccc(Nc3ccc4c(c3)OCCO4)nc2)c1 [Cmpd 76] | 95
COc1ccc(Nc2cccc(C=Cc3ccccc3)n2)c(C)c1OC [Cmpd 145] | 96

Turning to the following molecule.
Return reported % neuroprotection (cell survival relative to control). Input molecule: COc1ccc(Nc2cccc(-c3cccc(N(C)C)c3)n2)cc1 [Cmpd 105]
98

---

Reported IC50 for target or system Casein Kinase 2 (Homo sapiens), by entry.

For Casein Kinase 2 (Homo sapiens), give IC50 of the listed compound: COc1cc(N)nc2[nH]c(-c3ccc(F)cc3)c(-c3ccncc3)c12
> 100 µM

Print Casein Kinase 2 (Homo sapiens) IC50 for N#CC(=C(/N)Sc1ccccc1N)/C(C#N)=C(/N)Sc1ccccc1N .
> 100 µM

---

Endpoint: IC50. System: CDK1 (Homo sapiens). Items follow.
Sequence (P06493 whole entry): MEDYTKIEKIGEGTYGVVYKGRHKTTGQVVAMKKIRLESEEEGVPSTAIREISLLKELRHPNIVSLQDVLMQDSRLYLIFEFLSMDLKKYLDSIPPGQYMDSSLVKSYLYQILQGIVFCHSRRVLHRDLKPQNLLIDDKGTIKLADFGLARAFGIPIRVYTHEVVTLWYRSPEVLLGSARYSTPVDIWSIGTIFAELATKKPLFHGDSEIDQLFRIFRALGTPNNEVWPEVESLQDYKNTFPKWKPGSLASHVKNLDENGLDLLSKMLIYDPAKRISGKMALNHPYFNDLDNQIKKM
Sequence (P14635 whole entry partner): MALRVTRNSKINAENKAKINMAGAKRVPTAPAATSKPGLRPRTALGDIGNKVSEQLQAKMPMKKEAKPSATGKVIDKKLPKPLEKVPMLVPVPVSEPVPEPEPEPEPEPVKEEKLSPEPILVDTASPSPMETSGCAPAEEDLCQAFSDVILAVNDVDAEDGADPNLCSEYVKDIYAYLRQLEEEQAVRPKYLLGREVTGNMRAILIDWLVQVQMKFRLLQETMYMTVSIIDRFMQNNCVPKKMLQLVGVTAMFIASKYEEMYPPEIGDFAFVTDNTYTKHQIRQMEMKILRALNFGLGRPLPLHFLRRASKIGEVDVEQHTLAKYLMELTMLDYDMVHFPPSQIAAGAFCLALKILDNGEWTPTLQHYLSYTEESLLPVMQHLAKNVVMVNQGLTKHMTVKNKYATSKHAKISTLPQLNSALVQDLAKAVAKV

N#CC(=C(/N)Sc1ccccc1N)/C(C#N)=C(/N)Sc1ccccc1N | > 100 µM

From here, focus on the item given below.
Please look at COc1cc(N)nc2[nH]c(-c3ccc(F)cc3)c(-c3ccncc3)c12 and tell me its recorded IC50 on CDK1 (Homo sapiens).
> 100 µM

---

Test system: differentiated P19 neurons
Test: Drug screening using differentiated P19 cell assay (neuroprotection against glutamate/glycine)
Format: cell-based, murine
Settings: screened at 1 micromolar; percentage of control cells surviving after 24 hours
Protocol: Commercially available chemical libraries (BioFocus PLC, UK) were screened using the methods described herein. The stock concentration of the compounds was about 400 μM in DMSO. The concentration of compounds used in the primary screen was 1 μM. […] Columns 4-11 received compounds at the following final concentrations (μM): 3, 1.2, 0.48, 0.192, 0.077, 0.031, 0.012 and 0.005. […] Data are expressed as % neuroprotection=((compound-glutamate average)/(U0126-glutamate average)×100). […]
recordedMetric: % neuroprotection (cell survival relative to control) (%)
Entry rule: numbers only, all in %.

COc1ccc(Nc2cccc(-c3ccc(CNC(=O)OC(C)(C)C)cc3)n2)cc1 [Cmpd 102] | 103
c1cc(N2CCOCC2)ccc1Nc1ccc(-c2ccc3c(c2)OCO3)cn1 [Cmpd 30] | 84
CCCCCOc1ccc(Nc2ccc(-c3cccc(N)c3)cn2)cc1 [Cmpd 36] | 98
COc1cc(Nc2cccc(-c3ccc(C)c(C)c3)n2)cc(OC)c1OC [Cmpd 126] | 90
COc1ccc(Nc2cccc(-c3ccc4ccccc4c3)n2)cc1 [Cmpd 97] | 71
COc1ccc(Nc2ccc(-c3ccc(N(C)C)cc3)cn2)cc1 [Cmpd 8] | 83
COc1ccc(Nc2ccc(-c3ccc(N4CCOCC4)cc3)cn2)cc1 [Cmpd 83] | 71
COc1cc(Nc2cccc(-c3ccc(Cl)c(Cl)c3)n2)cc(OC)c1OC [Cmpd 146] | 99

Please give the documented % neuroprotection (cell survival relative to control) of COc1cc(Nc2cccc(-c3cccc(N(C)C)c3)n2)cc(OC)c1OC [Cmpd 113]
91

Note % neuroprotection (cell survival relative to control) for the compound shown: Cc1ccc(-c2ccc(Nc3ccc(N4CCOCC4)cc3)nc2)cc1C [Cmpd 80]
94

---

System: differentiated P19 neurons
Test: Differentiated P19 excitotoxicity assay (glutamate/glycine-induced death, Alamar Blue)
Assay type: cell-based, murine
Conditions: 3 mM glutamate + 1 mM glycine; mean of three separate curves; read-out: IC50 for Neuroprotection [lower-upper 95% C.I.]
pIC50: −log10 of the molar value.
recordedMetric: pIC50

Consider the compound O=C(O)c1cc(N(Cc2ccccc2O)Cc2cc(O)ccc2O)ccc1O tested on differentiated P19 neurons; state its pIC50.
< 5.00

---

Tested on: differentiated P19 neurons
Assay: Drug screening using differentiated P19 cell assay (neuroprotection against glutamate/glycine)
Assay type: cell-based, murine
Details: Mus musculus, Neuron; dose response 0.005-3 μM; 3 mM glutamate + 1 mM glycine; >1 = no maximum within highest dose (3 μM)
recordedMetric: IC50 (nM)
// note: answer is a bare numeric in nM

A selection of reference data follows.
COc1ccc(Nc2cccc(-c3ccco3)n2)cc1 | 240
CCCCCOc1ccc(Nc2ccc(-c3ccc(N4CCOCC4)cc3)cn2)cc1 | 220
COc1cc(Nc2cccc(-c3ccccc3)n2)cc(OC)c1OC | 7

Give the reported IC50 for this compound. COc1cc(C)c(Nc2cccc(-c3ccc(C)c(C)c3)n2)cc1OC
190

Read off the recorded IC50 for COc1ccc(-c2cccc(Nc3cc(OC)c(OC)c(OC)c3)n2)cc1OC
230

Give the reported IC50 for this compound. CCCCCOc1ccc(Nc2ccc(-c3ccc4c(c3)OCO4)cn2)cc1
260

Provide only the value of recorded IC50 for C(=C\c1ccc(Nc2ccc3c(c2)OCCO3)nc1)/c1ccccc1
230
